# targetDesc: ErbB2 with Exon 20 YVMA insertion (HER2-YVMA) (Homo sapiens (Human), UniProt P04626, INS775YVMA)
# Sequence (P04626 other isoform, or with tags, fused parts or gaps ins YVMA behind 775): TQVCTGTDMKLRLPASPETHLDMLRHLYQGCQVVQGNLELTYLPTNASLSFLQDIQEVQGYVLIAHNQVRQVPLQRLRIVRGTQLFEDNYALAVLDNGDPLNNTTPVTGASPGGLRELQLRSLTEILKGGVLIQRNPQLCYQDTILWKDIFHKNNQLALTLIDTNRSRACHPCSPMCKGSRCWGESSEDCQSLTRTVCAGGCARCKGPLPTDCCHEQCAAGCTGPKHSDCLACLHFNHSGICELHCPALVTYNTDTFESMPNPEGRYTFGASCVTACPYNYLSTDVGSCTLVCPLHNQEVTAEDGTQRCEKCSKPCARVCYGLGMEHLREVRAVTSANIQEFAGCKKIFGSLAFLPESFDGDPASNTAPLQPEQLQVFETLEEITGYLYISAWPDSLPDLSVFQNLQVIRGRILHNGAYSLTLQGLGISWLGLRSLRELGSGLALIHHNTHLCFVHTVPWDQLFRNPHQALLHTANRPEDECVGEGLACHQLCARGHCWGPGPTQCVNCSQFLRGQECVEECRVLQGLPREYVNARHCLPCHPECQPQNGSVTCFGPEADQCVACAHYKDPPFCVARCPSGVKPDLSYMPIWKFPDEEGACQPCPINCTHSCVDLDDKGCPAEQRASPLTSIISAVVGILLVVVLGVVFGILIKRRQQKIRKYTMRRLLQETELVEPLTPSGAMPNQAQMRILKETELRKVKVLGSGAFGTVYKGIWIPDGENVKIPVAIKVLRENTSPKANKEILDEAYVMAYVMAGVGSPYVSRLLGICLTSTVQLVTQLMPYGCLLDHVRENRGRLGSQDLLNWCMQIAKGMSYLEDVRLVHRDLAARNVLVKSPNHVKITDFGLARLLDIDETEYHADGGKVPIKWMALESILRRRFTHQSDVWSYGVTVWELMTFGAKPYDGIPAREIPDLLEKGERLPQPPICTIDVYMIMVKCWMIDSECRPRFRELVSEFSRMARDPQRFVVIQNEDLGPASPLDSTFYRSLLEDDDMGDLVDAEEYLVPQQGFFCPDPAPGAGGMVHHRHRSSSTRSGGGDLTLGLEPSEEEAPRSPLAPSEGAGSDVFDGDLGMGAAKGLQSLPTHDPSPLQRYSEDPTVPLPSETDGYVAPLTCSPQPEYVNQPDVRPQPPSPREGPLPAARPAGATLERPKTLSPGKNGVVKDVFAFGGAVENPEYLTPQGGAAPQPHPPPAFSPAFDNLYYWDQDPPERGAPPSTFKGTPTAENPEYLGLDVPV
# assayInfo: Cellular phosphorylation assay, constitutive ErbB2 phosphorylation (Y1196) in engineered NIH 3T3 cells, Assay 4
pIC50: −log10 of the molar value.
Rule: pIC50 under 7 gives false (0), otherwise true (1).

[[record]]
molecule = "CCCOc1ncc2ncnc(Nc3ccc(Oc4ccc5c(c4)ncn5C)c(C)c3)c2n1 [Example 221]"
class = "false (0)"

[[record]]
molecule = "Cn1cnc2cc(Oc3ccc(Nc4ncnc5cnc(N6CCOC7(CC7)C6)nc45)cc3Cl)ccc21 [Example 449]"
class = "true (1)"

[[record]]
molecule = "Cc1cc(Nc2ncnc3cnc(N4CCC5(CCOC5)C4)nc23)ccc1Oc1ccc2c(c1)ncn2C (centres unmarked) [Example 15]"
class = "true (1)"

[[record]]
molecule = "Cc1cc(Nc2ncnc3cnc(N4C[C@H]5CC[C@@H]4CO5)nc23)ccc1Oc1ccc2c(c1)ncn2C [Example 54]"
class = "true (1)"

[[record]]
molecule = "Cc1cc(Nc2ncnc3cnc(N(C)CC(C)(C)C#N)nc23)ccc1Oc1ccc2c(c1)ncn2C [Example 205]"
class = "true (1)"

[[record]]
molecule = "Cc1cc(Nc2ncnc3cnc(N4C[C@@H]5CCCN5C4=O)nc23)ccc1Oc1ccc2c(c1)ncn2C [Example 254]"
class = "true (1)"

[[record]]
molecule = "CSc1ncc2ncnc(Nc3ccc(Oc4ccc5c(c4)ncn5C)c(C)c3)c2n1 [Example 1]"
class = "true (1)"

[[record]]
molecule = "Cc1cc(Nc2ncnc3cnc(N4CC(C(F)F)C4)nc23)ccc1Oc1ccc2c(c1)ncn2C [Example 37]"
class = "false (0)"


###

pIC50: −log10 of the molar value.
// each record: one item and its pIC50 for EGFR (Homo sapiens (Human), UniProt P00533)
propertyName: pIC50

[[record]]
compound = "Cc1cc(Nc2ncnc3cnc(N4CC5(C4)CC(O)(C(F)(F)F)C5)nc23)ccc1Oc1ccc2c(c1)ncn2C"
targetdesc = "EGFR (Homo sapiens (Human), UniProt P00533)"
result = "≤ 5.00"

[[record]]
compound = "CCOc1ncc2ncnc(Nc3ccc(Oc4ccc5c(c4)ncn5C)c(C)c3)c2n1"
targetdesc = "EGFR (Homo sapiens (Human), UniProt P00533)"
result = "≤ 5.00"

[[record]]
compound = "Cc1cc(Nc2ncnc3cnc(N4CC[C@@H](C)C4=O)nc23)ccc1Oc1ccc2c(c1)ncn2C"
targetdesc = "EGFR (Homo sapiens (Human), UniProt P00533)"
result = "≤ 5.00"

[[record]]
compound = "Cc1cc(Nc2ncnc3cnc(N=S4(=O)CCOCC4)nc23)ccc1Oc1ccc2c(c1)ncn2C"
targetdesc = "EGFR (Homo sapiens (Human), UniProt P00533)"
result = 5.31

[[record]]
compound = "Cn1cnc2cc(Oc3ccc(Nc4ncnc5cnc(N6CC7C8CCC(O8)C7C6)nc45)cc3Cl)ccc21.O=C(O)C(F)(F)F (stereo not shown)"
targetdesc = "EGFR (Homo sapiens (Human), UniProt P00533)"
result = "≤ 5.00"

[[record]]
compound = "Cc1cc(Nc2ncnc3cnc(N4CC5CC4CO5)nc23)ccc1Oc1ccc2c(c1)ncn2C.O=C(O)C(F)(F)F (stereo not shown) [Example 77, 2,2,2-trifluoroacetate]"
targetdesc = "EGFR (Homo sapiens (Human), UniProt P00533)"
result = "≤ 5.00"

[[record]]
compound = "Cc1cc(Nc2ncnc3cnc(N4C[C@@H]5[C@H](C4)[C@H]4CC[C@@H]5O4)nc23)ccc1Oc1ccc2c(c1)ncn2C"
targetdesc = "EGFR (Homo sapiens (Human), UniProt P00533)"
result = "≤ 5.00"


Hello, the source for this data is patent US11834453B2, in case you need it.
